# system.under.test: CCR3 receptor (UniProt P51677)
# assay.overview: CCR3 Receptor Binding Assay ([125I]-labeled human eotaxin/CCL11 displacement on cells)
# condition.notes: H2SO4 salt
pKi: −log10 of the molar value.
test.readout: pKi

Recorded pKi of N#Cc1ccc(Sc2cc(Cl)ccc2Cl)c(S(=O)(=O)N2CCN(C3CCCC3)CC2)c1 , please.
≥ 8.00

====

# system.under.test: CCR3 receptor (UniProt P51677)
# Sequence (P51677 1-355): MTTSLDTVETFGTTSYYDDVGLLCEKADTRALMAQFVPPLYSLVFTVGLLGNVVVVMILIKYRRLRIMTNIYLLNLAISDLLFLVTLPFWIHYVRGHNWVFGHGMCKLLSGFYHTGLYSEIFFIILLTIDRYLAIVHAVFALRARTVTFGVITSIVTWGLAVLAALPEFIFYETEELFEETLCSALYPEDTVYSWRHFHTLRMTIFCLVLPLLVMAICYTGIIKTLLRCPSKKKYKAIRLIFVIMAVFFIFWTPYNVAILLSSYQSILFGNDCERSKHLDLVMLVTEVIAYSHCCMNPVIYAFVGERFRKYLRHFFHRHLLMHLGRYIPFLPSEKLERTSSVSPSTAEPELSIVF
# assay.overview: CCR3 Receptor Binding Assay ([125I]-labeled human eotaxin/CCL11 displacement on cells)
# condition.notes: HCl: hydrochloric acid salt of the corresponding compound
# Method: Cells were washed once with PBS and resuspended in a binding buffer (25 mM HEPES pH 7.6, 5 mM MgCl2, 1 mM CaCl2, 0.5% BSA, 0.1% NaN3), […] of cell suspension (2×10^5 cells/well) and 0.1 nM [^125I]-labeled human eotaxin/CCL11 (2000 Ci/mmol specific activity) were mixed in a 96-well U-bottom polypropylene plate, and incubated for 60 min at room temperature for the binding reaction. […]
pKi: −log10 of the molar value.
Can you tell me pKi for the items I'm about to list?

Param item = CCN(CC)CCNS(=O)(=O)c1cc(C#N)ccc1Sc1cc(C)ccc1C [Compound 73] ; retrieve measured pKi.
7.00 to 7.60

Entry N#Cc1ccc(Oc2cc(F)ccc2F)c(S(=O)(=O)NCCN2CCCCC2)c1 [Compound 64] : reported pKi = ?
< 8.30

Reported pKi, compound O=[N+]([O-])c1ccc(Oc2cc(Cl)ccc2Cl)c(S(=O)(=O)N2CCNCC2)c1 [Compound 147] : ____
7.00 to 7.60

Name the recorded pKi for Cc1ccc(C)c(Oc2ccc(C#N)cc2S(=O)(=O)N2CCNCC2)c1 [Compound 51] .
7.00 to 7.60

Look up pKi for this compound: N#Cc1ccc(Oc2cc(F)ccc2F)c(S(=O)(=O)N2CCC(N3CCCC3)CC2)c1 [Compound 60]
< 8.30

Bench note: what pKi did CN(C)C1CCN(S(=O)(=O)c2cc(C#N)ccc2Oc2cc(F)ccc2F)CC1 [Compound 59] show?
< 8.30

Param item = N#Cc1ccc(Sc2cc(Cl)ccc2Cl)c(S(=O)(=O)N2CCNCC2)c1 [Compound 76] ; retrieve measured pKi.
≥ 8.00

Data request, read-out pKi, for N#Cc1ccc(Sc2cc(Cl)ccc2Cl)c(S(=O)(=O)N2CCN(C3CCCC3)CC2)c1 [Compound 80]
≥ 8.00

Dear colleague, I am looking for the recorded pKi of the following compound: CN1CCCN(S(=O)(=O)c2cc(C#N)ccc2Sc2cc(Cl)ccc2Cl)CC1 [Compound 81]
7.60 to 8.00

I would be grateful if you could share the reported pKi for N#Cc1ccc(Sc2cc(Cl)ccc2Cl)c(S(=O)(=O)N2CCC(N3CCCC3)CC2)c1 [Compound 84] .
≥ 8.00

Entry CN1CCCN(S(=O)(=O)c2cc(C#N)ccc2Oc2cc(F)ccc2F)CC1 [Compound 57] has what pKi?
< 8.30

Quick one: pKi for N#Cc1ccc(Oc2cc(F)ccc2F)c(S(=O)(=O)N2CCN(C3CCCC3)CC2)c1 [Compound 56] ?
7.00 to 7.60

Reported pKi, compound Cc1ccc(C)c(Sc2ccc(C#N)cc2S(=O)(=O)N2CCN(C(C)C)CC2)c1 [Compound 67] : ____
6.30 to 7.00

Could you share which pKi value was measured for CCC(CC)N1CCN(S(=O)(=O)c2cc(C#N)ccc2Sc2cc(C)ccc2C)CC1 [Compound 68] ?
7.00 to 7.60

Give the measured pKi of CN(C)C1CCN(S(=O)(=O)c2cc(C#N)ccc2Sc2cc(Cl)ccc2Cl)CC1 [Compound 83] .
≥ 8.00

Using the record for CC(C)N1CCN(S(=O)(=O)c2cc(C#N)ccc2Oc2cc(F)ccc2F)CC1 [Compound 54] , report its pKi.
7.00 to 7.60

What value of pKi has been recorded for this entry: Cc1ccc(C)c(Sc2ccc(C#N)cc2S(=O)(=O)N2CCC(N(C)C)CC2)c1 [Compound 72]
7.00 to 7.60

====

# system.under.test: CCR3 receptor (UniProt P51677)
# Sequence (P51677 1-355): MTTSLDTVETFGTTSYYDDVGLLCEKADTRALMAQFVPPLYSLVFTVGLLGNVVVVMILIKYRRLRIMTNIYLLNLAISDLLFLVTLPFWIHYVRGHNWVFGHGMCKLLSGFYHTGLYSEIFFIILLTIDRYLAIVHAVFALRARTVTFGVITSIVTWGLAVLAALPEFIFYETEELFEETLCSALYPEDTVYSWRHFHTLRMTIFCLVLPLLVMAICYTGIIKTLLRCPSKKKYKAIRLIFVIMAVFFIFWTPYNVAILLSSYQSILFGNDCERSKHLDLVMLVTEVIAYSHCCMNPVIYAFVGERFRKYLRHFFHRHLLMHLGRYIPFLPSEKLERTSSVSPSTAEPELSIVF
# assay.overview: CCR3 Receptor Binding Assay ([125I]-labeled human eotaxin/CCL11 displacement on cells)
# condition.notes: (CO2H)2 salt
pKi: −log10 of the molar value.
test.readout: pKi

GET /values?readout=pKi&item= N#Cc1ccc(Sc2cc(Cl)ccc2Cl)c(S(=O)(=O)N2CCN(C3CCCC3)CC2)c1
7.00 to 7.60

====

# system.under.test: CCR3 receptor (UniProt P51677)
# assay.overview: CCR3 Receptor Binding Assay ([125I]-labeled human eotaxin/CCL11 displacement on cells)
# condition.notes: Free (free form of the compound)
Give measured Ki for each item. Keep answers brief.

Would you kindly share the measured Ki for CCC(CC)N1CCN(S(=O)(=O)c2cc(C#N)ccc2Oc2cc(F)ccc2F)CC1 [Compound 55] ?
> 5 nM

What does the record list as Ki for N#Cc1ccc(Sc2cc(Cl)ccc2Cl)c(S(=O)(=O)N2CCNCC2)c1 [Compound 76] ?
≤ 10 nM

What value of Ki has been reported for the following compound? Cc1ccc(C)c(Sc2ccc([N+](=O)[O-])cc2S(=O)(=O)N2CCNC(=O)C2)c1 [Compound 125]
> 5 nM

Param item = Cc1ccc(C)c(Sc2ccc([N+](=O)[O-])cc2S(=O)(=O)N2CCN(C3CCCCC3)CC2)c1 [Compound 120] ; retrieve measured Ki.
> 5 nM

Which Ki value belongs to Cc1ccc(C)c(Sc2ccc([N+](=O)[O-])cc2S(=O)(=O)N2CCSCC2)c1 [Compound 116] ?
> 5 nM

Given the entry CC(C)N1CCN(S(=O)(=O)c2cc(C#N)ccc2Oc2cc(Cl)ccc2Cl)CC1 [Compound 88] , report its measured Ki.
≤ 10 nM

Sample Cc1ccc(C)c(Oc2ccc([N+](=O)[O-])cc2S(=O)(=O)N2CCOCC2)c1 [Compound 113] — what was its Ki?
> 5 nM

Look up Ki: N#Cc1ccc(Oc2cc(Cl)ccc2Cl)c(S(=O)(=O)NCCN2CCOCC2)c1 [Compound 95]
100 to 500 nM

====

# system.under.test: UniProt:P51677
# assay.overview: CCR3 Receptor Binding Assay ([125I]-labeled human eotaxin/CCL11 displacement on cells)
# condition.notes: Free (free form of the compound)
# Experimental: Cells were washed once with PBS and resuspended in a binding buffer (25 mM HEPES pH 7.6, 5 mM MgCl2, 1 mM CaCl2, 0.5% BSA, 0.1% NaN3), […] of cell suspension (2×10^5 cells/well) and 0.1 nM [^125I]-labeled human eotaxin/CCL11 (2000 Ci/mmol specific activity) were mixed in a 96-well U-bottom polypropylene plate, and incubated for 60 min at room temperature for the binding reaction. […]
pKi: −log10 of the molar value.
test.readout: pKi

Requested read-out: pKi. Entry: O=[N+]([O-])c1ccc(Sc2cc(Cl)ccc2Cl)c(S(=O)(=O)N2CCNCC2)c1
7.60 to 8.00

Can you look up the measured pKi of O=[N+]([O-])c1ccc(Sc2cc(Cl)ccc2Cl)c(S(=O)(=O)N2CCOCC2)c1 for me?
< 8.30

Given N#Cc1ccc(Oc2cc(F)ccc2F)c(S(=O)(=O)N2CCC(N3CCCC3)CC2)c1 , state its recorded pKi.
< 8.30

I am curious: what pKi value has been reported for N#Cc1ccc(Sc2cc(Cl)ccc2Cl)c(S(=O)(=O)N2CCC(N3CCCC3)CC2)c1 ?
≥ 8.00

pKi lookup needed for CCC(CC)N1CCN(S(=O)(=O)c2cc(C#N)ccc2Sc2cc(Cl)ccc2Cl)CC1 , thanks.
7.00 to 7.60

Look at this compound and give its reported pKi. Cc1ccc(C)c(Sc2ccc(C#N)cc2S(=O)(=O)N2CCC(N(C)C)CC2)c1
< 8.30

Report pKi for Cc1ccc(C)c(Sc2ccc([N+](=O)[O-])cc2S(=O)(=O)N2CC(C)NC(C)C2)c1 (centres unmarked) please.
< 8.30

Field request: pKi | item: CC(C)N1CCN(S(=O)(=O)c2cc([N+](=O)[O-])ccc2Oc2cc(Cl)ccc2Cl)CC1
≥ 8.00
